- Test system: natural phosphodiester RNA strand
- experimentNotes: Thermal denaturation (Tm) of duplexes with complementary RNA
- Type: binding
- conditionLabel: duplex; same buffer with additional 10 mM magnesium chloride (second number)
Parameter threshold = 50 °C. Response is Criterion met when Tm, RNA meets or exceeds it, else Criterion not met.

Kindly determine if Tm, RNA recorded for d(UnUnUnUnUnUnUnUnUnT) (UUUUUUUUUT; N3′→P5′ phosphoramidate; contains 2 prime-deoxy nucleosides; test compounds) [SEQ ID NO:6, 2′-deoxy N3′→P5′ phosphoramidate oligonucleotide] is above or exactly 50 °C.
Criterion not met

Kindly determine if Tm, RNA recorded for r(Up^fUp^fUp^fUp^fUp^fUp^fUp^fUp^fUp^fT) (UUUUUUUUUT; 2′-ribo-fluoro; contains 2 prime-ribo-fluoronucleosides; test compounds) [SEQ ID NO:4, 2′-ribo-fluoro phosphodiester decanucleotide] is above or exactly 50 °C.
Criterion not met

Kindly determine if Tm, RNA recorded for a(Up^fUp^fUp^fUp^fUp^fUp^fUp^fUp^fUp^fT) [SEQ ID NO:5] is above or exactly 50 °C.
Criterion not met

Kindly determine if Tm, RNA recorded for dT-r(Un^fUn^fUn^fUn^fUn^fUn^fUn^fUn^f Un^f) (TUUUUUUUUU; 2′-ribo-fluoro phosphoramidate; 5′ dT; contains 2 prime-deoxy and 2 prime-ribo- fluoronucleotides; test compounds) [SEQ ID NO:7, 2′-ribo-fluoro N3′→P5′ phosphoramidate oligonucleotide] is above or exactly 50 °C.
Criterion met

Kindly determine if Tm, RNA recorded for d(UpUpUpUpUpUpUpUpUpT) (UUUUUUUUUT; contains 2 prime-deoxy nucleosides; test compounds) [SEQ ID NO:3, 2′-deoxy phosphodiester oligonucleotide] is above or exactly 50 °C.
Criterion not met

---

Would you kindly list Tm, DNA for each of these substances?
- Tested on: natural phosphodiester ssDNA
- experimentNotes: Thermal denaturation (Tm) of duplexes with complementary DNA
- Type: binding
- conditionLabel: duplex; 150 mM NaCl, 10 mM sodium phosphate buffer (first number)
Supply the numeric figure in °C, leaving out any unit text.

GET /values?readout=Tm, DNA&item= a(Up^fUp^fUp^fUp^fUp^fUp^fUp^fUp^fUp^fT) [SEQ ID NO:5]
17.0

GET /values?readout=Tm, DNA&item= d(UnUnUnUnUnUnUnUnUnT) (UUUUUUUUUT; N3′→P5′ phosphoramidate; contains 2 prime-deoxy nucleosides; test compounds) [SEQ ID NO:6, 2′-deoxy N3′→P5′ phosphoramidate oligonucleotide]
18.5

---

- Tested on: natural phosphodiester ssDNA
- experimentNotes: Thermal denaturation (Tm) of duplexes with complementary DNA
- Format: binding
- conditionLabel: duplex; 150 mM NaCl, 10 mM sodium phosphate buffer (first number)
measure: Tm, DNA (°C)
Supply the numeric figure in °C, leaving out any unit text.

GET /values?readout=Tm, DNA&item= dT-r(Un^fUn^fUn^fUn^fUn^fUn^fUn^fUn^f Un^f) (TUUUUUUUUU; 2′-ribo-fluoro phosphoramidate; 5′ dT; contains 2 prime-deoxy and 2 prime-ribo- fluoronucleotides; test compounds) [SEQ ID NO:7, 2′-ribo-fluoro N3′→P5′ phosphoramidate oligonucleotide]
37.4

GET /values?readout=Tm, DNA&item= d(UpUpUpUpUpUpUpUpUpT) (UUUUUUUUUT; contains 2 prime-deoxy nucleosides; test compounds) [SEQ ID NO:3, 2′-deoxy phosphodiester oligonucleotide]
16.7

GET /values?readout=Tm, DNA&item= dT-a(Un^fUn^fUn^fUn^fUn^fUn^fUn^fUn^f Un^f) (TUUUUUUUUU; 2′-arabino-fluoro phosphoramidate; 5′ dT; contains 2 prime-deoxy and 2 prime-arabino- fluoronucleosides; test compounds) [SEQ ID NO:8, 2′-arabino-fluoro N3′→P5′ phosphoramidate decanucleotide]
25.7
